Values compiled from ChEMBL document CHEMBL3994597.

- Species: Homo sapiens
- methodDescription: Inhibition of multidrug resistance efflux pump in multidrug resistant human MCF7 cells cultured in vinblastine containing medium assessed as potentiation of vinblastine-induced cytotoxicity by measuring fold reduction in vinblastine IC50 at 25 ug/ml after 72 hrs by SRB assay relative to vinblastine alone
Recorded fold change (FC), one value per entry.
Form rule: numeric answer, no unit written next to it.

CCC[C@H]1CCCCCCCCCC(=O)O[C@H]2[C@H](OC[C@H]3O[C@@H](O[C@H]4[C@H](O1)O[C@H](C)[C@@H](O)[C@@H]4O)[C@H](O[C@@H]1O[C@@H](C)[C@H](OC(C)=O)[C@@H](O)[C@H]1O)[C@@H](O)[C@@H]3O)O[C@H](C)[C@@H](O)[C@@H]2OC(=O)[C@H](C)[C@@H](C)O    2

Would you kindly look at the next entry?
What value of fold change (FC) has been reported for the following molecule? C/C=C(\C)C(=O)O[C@H]1[C@H](O[C@H]2[C@@H]3O[C@H]4[C@H](O[C@@H](CCC)CCCCCCCCCC(=O)O[C@H]5[C@H](O[C@H]6[C@H](OC[C@@H](O3)[C@@H](O)[C@@H]2O)O[C@H](C)[C@@H](O)[C@@H]6O)O[C@@H](C)[C@H](O)[C@H]5O)O[C@H](C)[C@@H](O)[C@@H]4O)O[C@@H](C)[C@H](O)[C@H]1O
3

----------
- Species: Homo sapiens
- methodDescription: Inhibition of multidrug resistance efflux pump in multidrug resistant human MCF7 cells cultured in vinblastine containing medium assessed as potentiation of vinblastine-induced cytotoxicity by measuring fold reduction in vinblastine IC50 at 25 ug/ml after 72 hrs by SRB assay relative to vinblastine alone
Recorded fold change (FC), one value per entry.
Form rule: numeric answer, no unit written next to it.

CCC[C@H]1CCCCCCCCCC(=O)O[C@H]2[C@H](O[C@H]3[C@H](O)[C@@H](C)O[C@@H](O[C@H]4[C@H](O1)O[C@H](C)[C@@H](O)[C@@H]4O)[C@@H]3O[C@@H]1O[C@@H](C)[C@H](OC(C)=O)[C@@H](O)[C@H]1O)O[C@H](C)[C@@H](O)[C@@H]2OC(=O)[C@H](C)[C@@H](C)O    201

What value of fold change (FC) has been reported for the following molecule? C/C=C(\C)C(=O)O[C@H]1[C@@H]2O[C@H]3[C@H](O[C@@H](CCC)CCCCCCCCCC(=O)O[C@@H]4[C@@H](O)[C@H](C)O[C@@H](O[C@H]5[C@H](O)[C@@H](C)O[C@@H](O[C@H]([C@H]1O)[C@H](C)O2)[C@@H]5O[C@@H]1O[C@@H](C)[C@H](O)[C@@H](O)[C@H]1OC(=O)[C@H](C)[C@@H](C)O)[C@@H]4O)O[C@H](C)[C@@H](O)[C@@H]3O
3

----------
- Test system: MCF7
- methodDescription: Cytotoxicity against multidrug resistant human MCF7 cells cultured in vinblastine free medium assessed as growth inhibition after 72 hrs by SRB assay
- Format: functional, cell-based
- measurementContext: MCF7, 72 h
measurementLabel: IC50 (nM)
The reply should be a number in nM, with the unit left off.

CC[C@]1(O)C[C@@H]2CN(CCc3c([nH]c4ccccc34)[C@@](C(=O)OC)(c3cc4c(cc3OC)N(C)[C@H]3[C@@](O)(C(=O)OC)[C@H](OC(C)=O)[C@]5(CC)C=CCN6CC[C@]43[C@@H]65)C2)C1    1100

Would you kindly look at the next entry?
What value of IC50 has been reported for the following compound? Cc1c2ccncc2c(C)c2c1[nH]c1ccccc12
1600
